Experiment: Cell Viability - BJ (AID 421);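 also: cells exposed to compound for 40 hours at 37 °C before readout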
Conditions: BJ fibroblast viability, qHTS
Results filed as inconclusive are left out. Activity calls are given as the source filed them. Calls follow the shape of the full dose curve.
Classes used: active, inactive

compound: Clc1cc(Cl)c(-c2cc(Cl)c(Cl)cc2Cl)cc1Cl
class assignment: inactive
//
compound: CCC[CH2][Sn]([Cl])([Cl])[Cl]
class assignment: inactive
//
compound: NC(=S)Nc1ccccc1
class assignment: inactive
//
compound: CCCC(=O)Cl
class assignment: inactive
//
compound: C=C(C)C#N
class assignment: inactive
//
compound: CCCCOCCOP(=O)(OCCOCCCC)OCCOCCCC
class assignment: inactive
//
compound: CCOCN(C(=O)CCl)c1c(C)cccc1CC
class assignment: active
//
compound: [O-][Br+2]([O-])O
class assignment: inactive
//
compound: C=C(Cl)Cl
class assignment: inactive
//
compound: Cc1cccc([N+](=O)[O-])c1
class assignment: inactive
//
compound: C=CC(N)=O
class assignment: inactive
//
compound: COC1=CC(=O)O[C@@H](/C=C/c2ccc3c(c2)OCO3)C1
class assignment: inactive
//
compound: C=CC(=O)OCC
class assignment: inactive
//
compound: OCC(Br)CBr (stereo not given)
class assignment: inactive
//
compound: COP(=S)(OC)Oc1ccc([N+](=O)[O-])cc1
class assignment: inactive
//
compound: Nc1ccccc1Cl
class assignment: inactive
//
compound: CC(C)(C)OO
class assignment: inactive
//
compound: Clc1nc(Cl)nc(Nc2ccccc2Cl)n1
class assignment: inactive
//
compound: C[N+](C)(C)Cc1ccccc1
class assignment: inactive
//
compound: O=C(Cl)C(Cl)(Cl)Cl
class assignment: inactive
//
compound: O=NN(CCO)CCO
class assignment: inactive
//
compound: Oc1ccc(Cl)cc1Cl
class assignment: inactive
//
compound: CCSC(=O)Cl
class assignment: inactive
//
compound: c1nc[nH]n1
class assignment: inactive
//
compound: C=CCOC(C)=O
class assignment: inactive
//
compound: ClCBr
class assignment: inactive
//
compound: C=CCc1ccc2c(c1)OCO2
class assignment: inactive
//
compound: C=CC(C)=O
class assignment: inactive
//
compound: CCOP(=S)(OCC)Oc1ccc([N+](=O)[O-])cc1
class assignment: inactive
//
compound: Nc1c(Cl)c(Cl)nc(C(=O)O)c1Cl
class assignment: inactive
//
compound: CC(O)CCl (stereo not given)
class assignment: inactive
//
compound: CCCOC(=O)c1ccccc1C(=O)OCCC
class assignment: inactive
//
compound: COC1=CC(=O)OC(CCc2ccccc2)C1 (stereo not given)
class assignment: inactive
//
compound: C=CCc1ccc(OC)cc1
class assignment: inactive
//
compound: ClC(Cl)=C(Cl)C(Cl)=C(Cl)Cl
class assignment: inactive

---

Experiment: S16 Schwann cell PMP22 intronic element beta-lactamase assay (AID 624044); also: nearly all actives have a fitted effect of over 15% in size
Details: S16 rat Schwann cells, PMP22 element beta-lactamase FRET, 24 h
Records with an inconclusive call do not appear. Calls of active or inactive are those of the source. The call rests on the fitted dose curve.
Classes used: active, inactive

molecule: CO[C@@H](COC(N)=O)C1=C(N2CC2)C(=O)C(C)=C(N2CC2)C1=O
class assignment: active
--
molecule: CC[C@]1(c2cccc(O)c2)CCCCN(C)C1
class assignment: inactive
--
molecule: CN[C@@H](C)[C@H]1CC[C@@H](N)[C@@H](O[C@@H]2[C@@H](O)[C@@H](O[C@H]3OC[C@@](C)(O)[C@@H](NC)[C@@H]3O)[C@H](N)C[C@@H]2N)O1 (tested in a mixture with another compound)
class assignment: inactive
--
molecule: NCC[C@H](O)C(=O)N[C@H]1C[C@@H](N)[C@@H](O[C@H]2O[C@@H](CN)[C@@H](O)[C@@H](O)[C@@H]2N)[C@@H](O[C@H]2O[C@@H](CO)[C@@H](O)[C@@H]2O)[C@@H]1O
class assignment: inactive
--
molecule: C[C@]12CC[C@H](O)C[C@H]1CCC1C2CC[C@]2(C)[C@@H](c3ccc(=O)oc3)C[C@H]3O[C@]132 (some centres not stated)
class assignment: inactive
--
molecule: CC(C)(O)C1C2OC(=O)C1[C@]1(O)C[C@H]3O[C@]34C(=O)O[C@H]2[C@]14C (some centres not stated) (tested in a mixture with another compound)
class assignment: inactive
--
molecule: CNC[C@H](O)c1ccc(O)cc1
class assignment: inactive
